B1: HEEH_KT_rd6_0790 (parent)
chain: SEEEEEEWRRAKERGEEIIILGILWKPNDEEAERRIKEALRRV

variants of: B1; assay: folding stability dG (cDNA display proteolysis); higher = more stable; settings: PBS, room temperature
Here, each record is paired with measured folding stability dG data.

Examples from the recorded data:
Per the record, V43Q has folding stability dG of 2.26 kcal/mol

Per the record, R14L has folding stability dG of 2.05 kcal/mol

Per the record, R9H has folding stability dG of 1.83 kcal/mol

Per the record, N28V has folding stability dG of 1.1 kcal/mol

Per the record, E17L has folding stability dG of 1.89 kcal/mol

Next variant, folding stability dG to be filled in.
Per the record, R10F has folding stability dG of 1.56 kcal/mol
